Tested on: Trichophyton benhamiae
Assay: Minimum inhibitory concentration against Trichophyton mentagrophytes in Sabouraud dextrose broth by using […]
Type: functional, Arthroderma benhamiae
PARAMETER_MEASURED: MIC (µg/mL)

[[record]]
given_smiles = "O=c1nc(Cc2ccccc2)sc(=O)[nH]1"
value_qualifier = "<"
result = 2

[[record]]
given_smiles = "O=c1nc(-c2ccc(Cl)cc2)sc(=O)[nH]1"
value_qualifier = "="
result = 4

[[record]]
given_smiles = "O=c1nc(Cc2cccnc2)sc(=O)[nH]1"
value_qualifier = "="
result = 8

[[record]]
given_smiles = "O=c1nc(Cc2ccc3c(c2)OCO3)sc(=O)[nH]1"
value_qualifier = "="
result = 4

[[record]]
given_smiles = "COc1ccc(-c2nc(=O)[nH]c(=O)s2)cc1"
value_qualifier = "="
result = 8

[[record]]
given_smiles = "O=c1nc(-c2ccco2)sc(=O)[nH]1"
value_qualifier = "<"
result = 2

[[record]]
given_smiles = "CC(C)c1nc(=O)[nH]c(=O)s1"
value_qualifier = "="
result = 15

[[record]]
given_smiles = "Oc1c(I)cc(Cl)c2cccnc12"
value_qualifier = "="
result = 4

[[record]]
given_smiles = "O=c1nc(-c2ccc3c(c2)OCO3)sc(=O)[nH]1"
value_qualifier = "="
result = 125

[[record]]
given_smiles = "O=c1nc(-c2cccs2)sc(=O)[nH]1"
value_qualifier = "="
result = 2

[[record]]
given_smiles = "Cc1ccc(-c2nc(=O)[nH]c(=O)s2)cc1"
value_qualifier = "<"
result = 2

[[record]]
given_smiles = "O=c1nc(-c2ccccc2)sc(=O)[nH]1"
value_qualifier = "<"
result = 2

[[record]]
given_smiles = "CN(C)c1ccc(-c2nc(=O)[nH]c(=O)s2)cc1"
value_qualifier = "="
result = 62

[[record]]
given_smiles = "CC(=O)c1ccc(-c2nc(=O)[nH]c(=O)s2)cc1"
value_qualifier = "<"
result = 2

